- Tested on: Malme-3M
- assayText: NCI tumour cell line growth inhibition, 48 h
Calls of active or inactive are those of the source. No stated cut-off is given here; in the data, active = GI50 up to about 1.1 µM and inactive = higher.
Possible outcomes: YES (active), NO (inactive)

[
  {
    "molecule": "O=Nc1c(-c2cccc([N+](=O)[O-])c2)nc2cnccn12",
    "labelValue": "NO"
  },
  {
    "molecule": "CCOC(=O)c1c(-c2ccc(Cl)cc2)c(C#N)c(=S)n(C2OC(COC(C)=O)C(OC(C)=O)C(OC(C)=O)C2OC(C)=O)c1C (stereo not given)",
    "labelValue": "NO"
  },
  {
    "molecule": "CC1CCCP(=O)(c2ccccc2)CCC1 (stereo not given)",
    "labelValue": "NO"
  },
  {
    "molecule": "N#Cc1c(N)c(C#N)c2c(c1-c1ccc(Cl)cc1)COc1ccccc1-2",
    "labelValue": "NO"
  },
  {
    "molecule": "CC(=O)NC1CONC1=O (stereo not given)",
    "labelValue": "NO"
  },
  {
    "molecule": "COc1ccc(OC)c2c3c([nH]c12)C(=O)Nc1nc(N)nc(N)c1C3",
    "labelValue": "NO"
  },
  {
    "molecule": "C=CCN1C(=O)/C(=C/c2ccccc2)N=C1SC1OC(COC(=O)c2ccccc2)C(OC(=O)c2ccccc2)C1OC(=O)c1ccccc1 (stereo not given)",
    "labelValue": "NO"
  },
  {
    "molecule": "COc1cc(Cl)cc(N(O)C(C)=O)c1OCc1ccccc1",
    "labelValue": "NO"
  },
  {
    "molecule": "COc1cc(C2C=C(c3ccccc3)Oc3cc4c(cc32)OCO4)cc(OC)c1OC (stereo not given)",
    "labelValue": "YES"
  },
  {
    "molecule": "Cc1ccccc1NC(=O)c1ccc([N+](=O)[O-])cc1",
    "labelValue": "NO"
  },
  {
    "molecule": "COc1cc(-c2ccccc2)c(OC)cc1CCl",
    "labelValue": "NO"
  },
  {
    "molecule": "CCCC/C=C1/CCC(CN(C)C)C1=O (stereo not given)",
    "labelValue": "NO"
  },
  {
    "molecule": "NC(CSC(=O)c1ccccc1)C(=O)O (stereo not given)",
    "labelValue": "NO"
  },
  {
    "molecule": "COc1cc(C2c3cc4c(cc3OC3(OC)COC(=O)C23)OCO4)cc(OC)c1OC (stereo not given)",
    "labelValue": "YES"
  },
  {
    "molecule": "CC(=O)OCC1OC(n2c(C)c(C(C)=O)c(-c3ccco3)c(C#N)c2=S)C(OC(C)=O)C(OC(C)=O)C1OC(C)=O (stereo not given)",
    "labelValue": "NO"
  },
  {
    "molecule": "CCCCCNC(=O)CCCCCCCCCCCNC(=O)CCCCCCCCCCN1C=CC(=CC=C2C=CC(=O)C=C2)C=C1",
    "labelValue": "NO"
  },
  {
    "molecule": "C(#C[C@@]12CCC[C@@H]1N(Cc1ccccc1)CO2)c1ccc2c(c1)OCO2",
    "labelValue": "NO"
  },
  {
    "molecule": "COc1ccc(NC(=O)/C(=C/c2ccc(N(CCC#N)CCC#N)cc2)NC(=O)c2cc([N+](=O)[O-])ccc2Cl)cc1",
    "labelValue": "NO"
  },
  {
    "molecule": "Oc1ccc(/C=C\\c2nnc(/C=C\\c3ccc(O)c(O)c3)s2)cc1O",
    "labelValue": "NO"
  },
  {
    "molecule": "CC1(C)CC2C(C1=O)C1(C)CCCC2(C)C1=O (stereo not given)",
    "labelValue": "NO"
  }
]
